Procedure Details: blockers of LAMP-1 surface exposure, TALL-104 – TALL-104 cells, flow cytometry, Cherry Pick01, confirmation (AID 651954);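 note: 0% = stimulated vehicle wells and 100% = unstimulated wells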
Experimental Context: LAMP-1 externalization, at 10 µM, stimulated with PMA plus thapsigargin
Out of some 1,500 compounds screened, about 160 (11%) were called active. Cut-off read from the data, not from the text of the source: active = inhibition above about 60%; inactive = the rest. Only a sample is shown.
Classes used: 1.0 for active, 0.0 for inactive

{"Compound": "Cc1ccc(-c2ccnc3nc(Sc4ncc(C(F)(F)F)cc4Cl)nn23)cc1", "Cat": 0.0}
{"Compound": "Cc1ccc(NC(=O)c2cc(-c3ccc(C)o3)nc3ccccc23)nc1", "Cat": 0.0}
{"Compound": "COc1ccccc1CN1CCN(C(c2ccccc2)c2ccccc2)CC1", "Cat": 0.0}
{"Compound": "CCOc1ccc(Cl)cc1-c1cc(C(=O)NCc2cccs2)[nH]n1", "Cat": 1.0}
{"Compound": "COC(=O)[C@H](Cc1ccccc1)NC(=O)[C@@H]1C[C@H]1[C@@H](NC(=O)OCc1ccccc1)c1ccccc1", "Cat": 0.0}
{"Compound": "COc1ccc(-c2cc(C(=O)N(C)Cc3ccccc3)c3ccccc3n2)cc1", "Cat": 0.0}
{"Compound": "CCCCC[C@H](C)N1C[C@@H](COCc2ccccc2)Oc2cc(N3CC[C@@H](N(C)C)C3)ccc2S1(=O)=O", "Cat": 0.0}
{"Compound": "O=C(NCc1ccccc1)C(c1ccccc1)N(C(=O)c1csnn1)c1ccc(F)cc1 (stereo unspecified)", "Cat": 0.0}
{"Compound": "O=S(=O)(Nc1ccc(O)c2ccccc12)c1ccc(OC(F)(F)F)cc1", "Cat": 0.0}
{"Compound": "COc1ccc(-c2oc3ncnc(NCCCO)c3c2-c2ccc(OC)cc2)cc1", "Cat": 0.0}
{"Compound": "Oc1ccccc1-c1cc(-c2ccc(Cl)cc2)n[nH]1", "Cat": 0.0}
{"Compound": "CCOC(=O)C1(CCOc2ccccc2)CCN(Cc2ccc(C#CCCO)cc2)CC1", "Cat": 0.0}
{"Compound": "COc1ccc(CCNC(=O)C2CC3Cn4c(nc5cc(C)c(C)cc54)C3N2C)cc1 (stereo unspecified)", "Cat": 0.0}
{"Compound": "O=C(COc1ccc(Cl)cc1)N1CCN(c2cccc(C(F)(F)F)c2)CC1", "Cat": 0.0}
{"Compound": "CCCC(C(=O)n1nc(C)cc1C)C(NS(=O)(=O)c1ccc(C)cc1)c1ccccc1 (stereo unspecified)", "Cat": 0.0}
{"Compound": "OCCNc1nc(Nc2ccc(Cl)c(Cl)c2)nc2ccccc12", "Cat": 0.0}
{"Compound": "CN(C)CCNC(=O)c1ccc(-c2cn3c(-c4ccc(Oc5ccccc5)cc4)cnc3cn2)cc1", "Cat": 1.0}
{"Compound": "CC(=O)C[C@@H](O)CC(=O)[C@H]1OC(=O)CCCCCCc2ccccc21", "Cat": 0.0}
{"Compound": "COc1ccc(C2CC(c3cccs3)=NN2c2nc(C)c(C(C)=O)s2)cc1OC (stereo unspecified)", "Cat": 1.0}
{"Compound": "CCOC(=O)C1(CCOc2ccccc2)CCN(Cc2cc(OC)c(O)cc2Cl)CC1", "Cat": 0.0}
{"Compound": "CCCC(=O)Nc1nc2ccc(NC(=O)c3c(F)c(F)c(OC)c(F)c3F)cc2s1", "Cat": 0.0}
